target: HLA-DR molecule encoded by the allele HLA-DRB1*0301 (human); assay: competition ELISA, nonbiotinylated tracer peptide against its biotinylated form
Ends that are not written are not given here.
quantityMeasured: IC50

## Input Give its IC50 value. Item: AKTIAYDEEARGLE (not fully specified) [MT 2-16 (nonbiotinylated peptide)]
## Output 100 nM
